# Target System: T1, RhoA Q63L (UniProt P61586 1-190, limits assumed)
# T1 construct: also called RhoA Q63L (2SHA); constitutively active RhoA mutant
# T1 sequence (P61586 1-190 Q63L limits assumed): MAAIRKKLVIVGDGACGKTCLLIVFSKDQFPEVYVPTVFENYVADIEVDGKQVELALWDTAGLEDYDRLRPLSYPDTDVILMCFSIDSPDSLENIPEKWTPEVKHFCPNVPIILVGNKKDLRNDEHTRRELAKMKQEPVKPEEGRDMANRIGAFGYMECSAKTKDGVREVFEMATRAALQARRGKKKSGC
# Test Protocol: binding kinetics, method not stated (Table 1)
Observation Type: koff

1) 5SNP65 hs2dAb (VHH) VHH: VQLQASGGGFVQPGGSLRLSCAASGATYEGEAMGWFRQAPGKEREFVSAISSYPSVISYYADSVKGRFTISRDNSKNTVYLQMNSLRAEDTATYYCAYWVNHEGTIREIYWGQGTQVTVSS	0.000522 s⁻¹
2) B6 hs2dAb (VHH, also called hs2dAb B6) VHH: VQLQASGGGFVQPGGSLRLSCAASGYGSTIETMGWFRQAPGKEREFVSAISRAPGPSQYYADSVKGRFTISRDNSKNTVYLQMNSLRAEDTATYYCAPINNRTMQDSMFLWNYWGQGTQVTVSS	0.0008 s⁻¹
3) 4SNP61 hs2dAb (VHH) VHH: VQLQASGGGFVQPGGSLRLSCAASGFTSTSTVMGWFRQAPGKEREFVSAISSAHTMDTYYADSVKGRFTISRDNSKNTVYLQMNSLRAEDTATYYCAPAPMLGQMITQPALPYWGQGTQVTVSS	0.0013 s⁻¹
4) 5SNP48 hs2dAb (VHH) VHH: VQLQASGGGFVQPGGSLRLSCAASGTSWFTEVMGWFRQAPGKEREFVSAISGLHDVGTYYADSVKGRFTISRDNSKNTVYLQMNSLRAEDTATYYCAALDKWYTKAMDARKDYWGQGTQVTVSS	0.000686 s⁻¹
